Cited source for all entries: ChEMBL document CHEMBL5143531

Readings of pIC50 for the listed compounds
Test: Inhibition of yeast alpha-glucosidase
Parameters: species or system Saccharomyces cerevisiae
pIC50: −log10 of the molar value.

| COMPOUND | pIC50 |
| --- | --- |
| Cc1nn(-c2ccccc2)c(C)c1C=C1C(=O)Nc2ccccc21 (single isomer, unassigned) | 3.81 |
| C[C@H]1O[C@H](O[C@H]2[C@H](O)[C@@H](O)[C@@H](O[C@H]3[C@H](O)[C@@H](O)C(O)O[C@@H]3CO)O[C@@H]2CO)[C@H](O)[C@@H](O)[C@@H]1N[C@H]1C=C(CO)[C@@H](O)[C@H](O)[C@H]1O (stereo not given in full) | 3.36 |
| O=C1Nc2ccccc2C1=Cc1ccc([N+](=O)[O-])cc1 (mixture of isomers) | 4.21 |
| O=C1Nc2ccc(NC(=O)c3ccccc3)cc2C1=Cc1ccc([N+](=O)[O-])cc1 (mixture of isomers) | 4.25 |
| COc1ccc2c(c1)C(=CC(=O)O)C(=O)N2 (mixture of isomers) | 4.58 |
| COC(=O)Nc1ccc2c(c1)C(=Cc1ccc(Br)cc1)C(=O)N2 (mixture of isomers) | 4.16 |
| O=C1Nc2ccc(NC(=O)c3ccccc3)cc2C1=Cc1ccc(O)cc1 (mixture of isomers) | 3.87 |
| COC(=O)Nc1ccc2c(c1)C(=Cc1ccc([N+](=O)[O-])cc1)C(=O)N2 (mixture of isomers) | 5.17 |
| COc1ccc2c(c1)C(O)(CC(=O)c1ccc(C)cc1)C(=O)N2 (stereo not given) | 4.22 |
| COC(=O)Nc1ccc2c(c1)C(=Cc1ccc(O)cc1)C(=O)N2 | 4.12 |

###

System: Saccharomyces cerevisiae
Assay: Inhibition of yeast alpha-glucosidase at 100 uM
Decide using inhibition: a value greater than or equal to 20% is yes, a smaller one is no.

| COMPOUND | TEST TARGET | ASSIGNED LABEL |
| --- | --- | --- |
| Cc1nn(-c2ccccc2)c(C)c1C=C1C(=O)Nc2ccccc21 (single isomer, unassigned) | Saccharomyces cerevisiae | yes |
| O=C1Nc2ccccc2C1=CC(=O)c1ccco1 (mixture of isomers) | Saccharomyces cerevisiae | yes |
| O=C1Nc2ccc([N+](=O)[O-])cc2C1=CC(=O)c1ccco1 (single isomer, unassigned; isomer 1) | Saccharomyces cerevisiae | no |
| COc1ccc(C(=O)CC2(O)C(=O)Nc3ccc(Br)cc32)cc1 (configuration not stated) | Saccharomyces cerevisiae | no |
| Cc1ccc(C(=O)CC2(O)C(=O)Nc3ccccc32)cc1 (configuration not stated) | Saccharomyces cerevisiae | no |
| O=C1Nc2ccccc2C1=Cc1ccc(O)cc1 (single isomer, unassigned; isomer 1) | Saccharomyces cerevisiae | yes |
| COc1ccc2c(c1)C(=CC#N)C(=O)N2Cc1ccccc1 (single isomer, unassigned; isomer 1) | Saccharomyces cerevisiae | no |

###

System: Saccharomyces cerevisiae
Experiment: Inhibition of yeast alpha-glucosidase at 100 uM
Decide using inhibition: a value greater than or equal to 10% is Criterion met, a smaller one is Criterion not met.

| MOLECULE | ASSIGNED LABEL |
| --- | --- |
| COC(=O)Nc1ccc2c(c1)C(=Cc1ccc(Br)cc1)C(=O)N2 (mixture of isomers) | Criterion met |
| O=C1Nc2ccccc2C12CC2c1ccccn1 (stereo not given) | Criterion met |
| Cc1ccc(C(=O)CC2(O)C(=O)Nc3ccc(NC(=O)c4ccccc4)cc32)cc1 (stereo not given) | Criterion met |
| COc1cc(C=C2C(=O)Nc3ccc(NC(C)=O)cc32)cc(OC)c1OC | Criterion not met |
| O=C1Nc2ccc(NC(=O)c3ccco3)cc2C1=Cc1ccc(O)cc1 (mixture of isomers) | Criterion met |
| COc1cc(C=C2C(=O)Nc3ccc(NC(=O)c4ccco4)cc32)cc(OC)c1OC (single isomer, unassigned; isomer 1) | Criterion met |
| O=C1Nc2ccc([N+](=O)[O-])cc2C1=Cc1ccncc1 (mixture of isomers) | Criterion not met |
| CC(=O)Nc1ccc2c(c1)C(CC(=O)O)(OC(C)=O)C(=O)N2 (stereo not given) | Criterion not met |
| Cc1n[nH]c(C)c1C=C1C(=O)Nc2ccccc21 (mixture of isomers) | Criterion met |
| CN1C(=O)C(=Cc2ccccn2)c2ccccc21 | Criterion met |
| Nc1ccc(CC2C(=O)Nc3ccccc32)cc1 (stereo not given) | Criterion not met |
| CN1C(=O)C(=Cc2ccc(O)cc2)c2ccccc21 (mixture of isomers) | Criterion met |
| COc1ccc2c(c1)C(O)(CC(=O)c1ccc(C)cc1)C(=O)N2 (stereo not given) | Criterion met |
| O=C1Nc2ccccc2C1=Cc1cccnc1 (mixture of isomers) | Criterion not met |
| O=C1Nc2ccc([N+](=O)[O-])cc2C1=Cc1cn[nH]c1C(=O)O (mixture of isomers) | Criterion met |
| Cc1[nH]ncc1C=C1C(=O)Nc2ccccc21 (mixture of isomers) | Criterion met |
| COc1ccc2c(c1)C(=CC(=O)O)C(=O)N2 (mixture of isomers) | Criterion met |
| O=C1Nc2ccccc2C1=Cc1ccc([N+](=O)[O-])cc1 (mixture of isomers) | Criterion met |
| CN1C(=O)C2(CC2C#N)c2cc(Br)ccc21 (stereo not given) | Criterion met |
| O=C1Nc2ccccc2C1=Cc1ccncc1 (mixture of isomers) | Criterion not met |
